Target: UniProtKB Q9NPD5
Sequence (Q9NPD5 whole entry): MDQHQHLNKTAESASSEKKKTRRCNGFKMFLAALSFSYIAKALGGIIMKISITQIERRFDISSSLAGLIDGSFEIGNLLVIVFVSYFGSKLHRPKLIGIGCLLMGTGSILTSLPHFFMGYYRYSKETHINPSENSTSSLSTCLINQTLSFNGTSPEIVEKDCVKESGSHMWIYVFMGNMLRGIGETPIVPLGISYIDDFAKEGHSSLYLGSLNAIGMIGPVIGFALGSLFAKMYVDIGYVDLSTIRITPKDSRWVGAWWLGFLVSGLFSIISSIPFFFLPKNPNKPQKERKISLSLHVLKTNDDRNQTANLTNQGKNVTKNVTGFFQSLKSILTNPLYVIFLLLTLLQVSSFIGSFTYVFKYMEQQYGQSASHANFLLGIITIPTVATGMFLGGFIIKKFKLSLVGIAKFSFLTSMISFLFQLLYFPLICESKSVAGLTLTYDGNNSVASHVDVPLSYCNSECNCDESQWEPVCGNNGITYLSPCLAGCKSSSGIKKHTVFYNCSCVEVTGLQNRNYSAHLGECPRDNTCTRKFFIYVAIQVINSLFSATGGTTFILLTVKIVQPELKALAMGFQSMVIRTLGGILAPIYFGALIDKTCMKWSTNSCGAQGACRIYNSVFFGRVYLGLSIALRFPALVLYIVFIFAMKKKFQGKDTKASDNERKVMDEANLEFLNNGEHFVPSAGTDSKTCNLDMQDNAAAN
Conditions: chinese hamster, cho, 10 µM
Listing of entries alongside the reported residual activity.
readoutType: residual activity

>>> valuemeasured("COC(=O)c1c(C)cc(OC(=O)c2c(C)cc(O)c(C=O)c2O)c(C)c1O")
"109.7%"
>>> valuemeasured("CC(=O)O[C@@H]1c2c(ccc3ccc(=O)oc23)OC(C)(C)[C@@H]1OC(=O)CC(C)C [DIHYDROSAMIDIN]")
"104.1%"
>>> valuemeasured("O=C(O[C@@H]1Cc2c(O)cc(O)cc2O[C@@H]1c1cc(O)c(O)c(O)c1-c1c([C@H]2Oc3cc(O)cc(O)c3C[C@H]2OC(=O)c2cc(O)c(O)c(O)c2)cc(O)c(O)c1O)c1cc(O)c(O)c(O)c1")
"94.99%"
>>> valuemeasured("S=P(N1CC1)(N1CC1)N1CC1")
"70.43%"

###

target: Solute carrier organic anion transporter family member 1B3 (Homo sapiens, UniProt Q9NPD5); conditions: chinese hamster, cho, 10 µM
readoutType: residual activity (%)

>>> valuemeasured("CC(COc1ccccc1)NC(C)C(O)c1ccc(O)cc1.Cl (stereo unspecified) [ISOXSUPRINE HYDROCHLORIDE]")
77.52
>>> valuemeasured("CC(=O)Oc1c(C)c(C)c2c(c1C)CCC(C)(CCCC(C)CCCC(C)CCCC(C)C)O2 (stereo not drawn) [alpha-TOCHOPHERYL ACETATE]")
93.84
>>> valuemeasured("NCC(CC(=O)O)c1ccc(Cl)cc1 (stereo unspecified)")
102.2
>>> valuemeasured("C[C@@H]1CC[C@H]2C(C)(C)[C@H]3C[C@@]12CC[C@@]3(C)O")
107.7
>>> valuemeasured("Cl.NCCc1cc(O)c(O)cc1O [OXIDOPAMINE HYDROCHLORIDE]")
100.5
>>> valuemeasured("N#Cc1ccc2c(c1)N(CCCN1CCC(O)CC1)c1ccccc1S2")
117.1

###

Target: Solute carrier organic anion transporter family member 1B1 (Homo sapiens)
Sequence (Q9Y6L6 whole entry): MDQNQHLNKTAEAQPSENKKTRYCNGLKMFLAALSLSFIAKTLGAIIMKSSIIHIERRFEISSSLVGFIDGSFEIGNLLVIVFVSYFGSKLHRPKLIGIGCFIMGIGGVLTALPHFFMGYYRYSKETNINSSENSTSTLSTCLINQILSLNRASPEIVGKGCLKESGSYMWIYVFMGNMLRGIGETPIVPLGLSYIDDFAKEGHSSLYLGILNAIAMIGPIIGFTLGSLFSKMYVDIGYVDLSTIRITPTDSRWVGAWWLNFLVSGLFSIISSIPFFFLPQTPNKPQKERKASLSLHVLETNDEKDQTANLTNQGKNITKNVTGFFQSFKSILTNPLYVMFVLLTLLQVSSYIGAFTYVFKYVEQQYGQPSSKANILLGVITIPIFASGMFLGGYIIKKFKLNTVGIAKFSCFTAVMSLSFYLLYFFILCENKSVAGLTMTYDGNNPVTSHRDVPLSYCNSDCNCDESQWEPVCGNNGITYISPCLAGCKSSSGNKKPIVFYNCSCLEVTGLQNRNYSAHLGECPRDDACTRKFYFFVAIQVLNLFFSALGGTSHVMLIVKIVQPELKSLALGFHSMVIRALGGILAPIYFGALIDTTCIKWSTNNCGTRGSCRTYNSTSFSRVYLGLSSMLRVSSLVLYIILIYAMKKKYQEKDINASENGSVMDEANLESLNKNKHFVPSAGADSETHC
Conditions: chinese hamster, cho, 10 µM
readoutType: residual activity (%)

>>> valuemeasured("CCN(CC)CCOC(=O)C(c1ccccc1)C1CCCCC1.Cl (stereo not given) [DROFENINE HYDROCHLORIDE]")
99.44
>>> valuemeasured("CCN(CC)CCNC(=O)c1ccc(N)cc1.Cl [PROCAINAMIDE HYDROCHLORIDE]")
81.68
>>> valuemeasured("CCCCCCCCCCC[C@@H](C[C@@H]1OC(=O)[C@H]1CCCCCC)OC(=O)[C@H](CC(C)C)NC=O")
85.27
>>> valuemeasured("COc1ccc(-c2c(O)c3c(OC)c4c(cc3oc2=O)OC(C)(C)CC4)cc1 [DIHYDROROBUSTIC ACID]")
73.61
>>> valuemeasured("CCC[C@@H]1C[C@@H](C(=O)N[C@@H]([C@H]2O[C@H](SC)[C@H](O)[C@@H](O)[C@H]2O)[C@H](C)Cl)N(C)C1.Cl [CLINDAMYCIN HYDROCHLORIDE]")
69.97

###

Listing of entries alongside the reported residual activity.
target: Solute carrier organic anion transporter family member 1B1 (Homo sapiens, UniProt Q9Y6L6); details: chinese hamster, cho, 10 µM
readoutType: residual activity (%)

>>> valuemeasured("CC(=O)Oc1cc(OC(C)=O)c2c(c1)O[C@H](c1ccc(OC(C)=O)c(OC(C)=O)c1)[C@@H](OC(C)=O)C2 [CATECHIN PENTAACETATE]")
82.47
>>> valuemeasured("C[C@H](CCC(=O)O)[C@H]1CC[C@H]2[C@@H]3C(=O)C[C@@H]4CC(=O)CC[C@]4(C)[C@H]3CC(=O)[C@]12C [DEHYDROCHOLIC ACID]")
80.16
>>> valuemeasured("CCC(=O)OCC(=O)[C@]1(OC(=O)CC)[C@H](C)C[C@H]2[C@@H]3CCC4=CC(=O)C=C[C@]4(C)[C@@]3(F)[C@@H](O)C[C@]21C")
76.42
>>> valuemeasured("COc1cc(OC)c2c(c1Cl)O[C@@]1(C(=O)CC(=O)C[C@H]1C)C2=O")
81.69
>>> valuemeasured("NC(=O)c1ccc([N+](=O)[O-])cc1Cl [AKLOMIDE]")
115.5
>>> valuemeasured("COC(=O)[C@@H]1OC(=O)[C@H]2O[C@]23[C@]2(C)[C@H](O)C[C@H]4C(C)(C)[C@H](OC(C)=O)C[C@H](OC(C)=O)[C@]4(C)[C@H]2CC[C@@]13C")
70.09
>>> valuemeasured("CCOC(=O)[C@H](CCc1ccccc1)N[C@H]1CCc2ccccc2N(CC(=O)O)C1=O.Cl [BENAZEPRIL HYDROCHLORIDE]")
101.2
>>> valuemeasured("N[C@H](CO)Cc1ccccc1 [L-PHENYLALANINOL]")
77.2
>>> valuemeasured("O=[N+]([O-])c1cc(O)c(O)c([N+](=O)[O-])c1 [3,5-DINITROCATECHOL (OR-486)]")
38.63

###

target: UniProt Q9Y6L6; details: chinese hamster, cho, 10 µM
readoutType: residual activity

>>> valuemeasured("CC1(C)C(=O)CC[C@]2(C)[C@@H]1C[C@@H](O)[C@]1(C)C3=CC(=O)O[C@H](c4ccoc4)[C@@]3(C)CC[C@@H]21")
"54.82%"
>>> valuemeasured("CCC/C=C1\\OC(=O)C2=C1CCC=C2 [LIGUSTILIDE]")
"117.7%"
>>> valuemeasured("CC(=O)Oc1c(-c2ccccc2)oc2c(CC=C(C)C)c3c(c(OC(C)=O)c2c1=O)C=CC(C)(C)O3 [SERICETIN DIACETATE]")
"106.8%"

###

target: UniProtKB Q9NPD5; settings: chinese hamster, cho, 10 µM
Starred links: 1 amine or outer side, 2 acyl side, 3 side chain; linkers in the order of their positions; H or OH if unused. Positions of bridges follow the written chain, without caps; N, C: chain ends. Non-standard residues stand in square brackets, D forms with d. Residues, ends and D or L forms follow the SMILES beside them. ξ: configuration not given here. *: point of attachment. X1 = N=C1NCCC([C@H](N[*:1])C(=O)[*:2])N1; ΔAla(Z-3-ureido) = NC(=O)N/C=C(\N)C(=O)O; ξβ3hOrn = NCCCC(N)CC(=O)*; Dap = NC[C@H](N)C(=O)O
Listing of entries alongside the reported residual activity.
readoutType: residual activity (%)

>>> valuemeasured("CCN(CC)CCOC(=O)C(c1ccccc1)C1CCCCC1.Cl (configuration not stated) [DROFENINE HYDROCHLORIDE]")
112.3
>>> valuemeasured("CN1CCCCC1c1ccc(-c2cccnc2)nc1.Cl (configuration not stated) [ANABASAMINE HYDROCHLORIDE]")
108.2
>>> valuemeasured("COc1cc(NS(=O)(=O)c2ccc(N)cc2)ncn1 [SULFAMONOMETHOXINE]")
105.3
>>> valuemeasured("C[C@@H]1NC(=O)[C@@H](N)CNC(=O)[C@H](C2CCNC(=N)N2)NC(=O)/C(=C/NC(N)=O)NC(=O)[C@H](CNC(=O)CC(N)CCCN)NC1=O.N=C1NCCC([C@@H]2NC(=O)/C(=C/NC(N)=O)NC(=O)[C@H](CNC(=O)CC(N)CCCN)NC(=O)[C@H](CO)NC(=O)[C@@H](N)CNC2=O)N1.O=S(=O)(O)O.O=S(=O)(O)O (stereo partly drawn) [CAPREOMYCIN SULFATE] (H-[Dap]S[Dap](ξβ3hOrn)[ΔAla(Z-3-ureido)][X1]; lactam 1-C)")
80.84
>>> valuemeasured("O=C(O)c1ccccc1C(=O)Nc1ccc(S(=O)(=O)Nc2nccs2)cc1 [PHTHALYLSULFATHIAZOLE]")
107
>>> valuemeasured("CN1C(=O)CCS(=O)(=O)C1c1ccc(Cl)cc1 (configuration not stated) [CHLORMEZANONE]")
92
>>> valuemeasured("Cc1nccc2c1[nH]c1cc(O)ccc12.Cl [HARMOL HYDROCHLORIDE]")
124.7

Data credit: ChEMBL document CHEMBL3039007
